- Target entity: Mitogen-activated protein kinase 14 (Homo sapiens) (UniProt Q16539)
- Sequence (Q16539 whole entry, looked up): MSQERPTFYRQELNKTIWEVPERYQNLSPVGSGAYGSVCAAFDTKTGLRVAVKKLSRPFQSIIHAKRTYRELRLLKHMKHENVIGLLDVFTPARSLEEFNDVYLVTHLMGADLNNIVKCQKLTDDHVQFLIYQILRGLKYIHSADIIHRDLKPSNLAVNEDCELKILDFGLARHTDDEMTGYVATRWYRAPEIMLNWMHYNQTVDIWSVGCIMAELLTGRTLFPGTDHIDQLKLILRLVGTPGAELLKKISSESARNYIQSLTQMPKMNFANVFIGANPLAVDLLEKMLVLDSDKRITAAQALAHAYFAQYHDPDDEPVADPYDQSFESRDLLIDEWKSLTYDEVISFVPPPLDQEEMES
- Protocol: Inhibition of p38alpha
Measure: log10(IC50) (log10 of the value in nM)
Quick note: numbers are log10 of IC50, with nM as the unit.

Field: example entries. Status: answers known.
Cc1c(F)cc(C(=O)NC2CC2)cc1-c1ccn2c(C(C)(C)NS(C)(=O)=O)nnc2c1 : 1.23
Cc1ccc(C(=O)NC2CC2)cc1-c1ccn2c(C3(C)CC3)nnc2c1 : 1.08
CC(=O)NC(C)(C)c1nnc2cc(-c3cc(C(=O)NC4CC4)cc(F)c3C)ccn12 : 2.40
Cc1c(F)cc(C(=O)NC2CC2)cc1-c1c(F)cn2c(C(C)(C)C)nnc2c1F : 0.79
Cc1c(F)cc(C(=O)NC2CC2)cc1-c1ccn2c(-c3ccncc3Cl)nnc2c1 : -0.08

Query: Give the measured log10(IC50) of Cc1ccc(C(=O)NC2CC2)cc1-c1ccn2c(C(F)(F)F)nnc2c1 .
Response: 2.93

Query: Next record, please: Cc1ccc(C(=O)NC2CC2)cc1-c1ccn2c(-c3ccncc3Cl)nnc2c1
Response: 1.58

Query: And for Cc1ccc(C(=O)NC2CC2)cc1-c1ccn2c(C(C)(C)C)nnc2c1 ?
Response: 1.20

Query: Now the same for CC(C)(C)c1nnc2ccc(Sc3ccc(F)cc3F)cn12
Response: 1.79

Values from BindingDB's records for doi:10.1016/j.bmcl.2012.03.099
